system_under_test: Human histamine-3 receptor (Homo sapiens)
Construct: expressed in transfected cells; host or cells: CHO cells
experiment_summary: Determination of Ki value at human histamine-3 receptor (radioligand binding, [3H] R-α-methylhistamine)
Protocol: Test compounds were evaluated according to the following procedures to determine the Ki value at human and rat histamine-3 receptor. • Receptor source: Rat brain frontal cortex or recombinant human cDNA expressed in CHO cells • Radioligand: [3H] R-α-methylhistamine • Final ligand concentration: [3.0 nM] • Non-specific determinant: R-α-methylhistamine (100 μM) • Reference compound: R-α-methylhistamine • Positive control: R-α-methylhistamine Incubation Conditions: […]
Counter-ions that a name gives are not always drawn.
test_readout: Ki (µM)
Unit µM implied. Number only.

Request: Could you tell me which Ki is on file for O=C(CN1CCOCC1)Nc1ccc(OC2CCN(C3CC3)CC2)cc1 [Compound 2, tartrate] ?
Response: 0.0199

###

system_under_test: Human histamine-3 receptor (Homo sapiens, UniProt Q9Y5N1)
Construct: expressed in transfected cells; host or cells: CHO cells
Sequence (Q9Y5N1 whole entry): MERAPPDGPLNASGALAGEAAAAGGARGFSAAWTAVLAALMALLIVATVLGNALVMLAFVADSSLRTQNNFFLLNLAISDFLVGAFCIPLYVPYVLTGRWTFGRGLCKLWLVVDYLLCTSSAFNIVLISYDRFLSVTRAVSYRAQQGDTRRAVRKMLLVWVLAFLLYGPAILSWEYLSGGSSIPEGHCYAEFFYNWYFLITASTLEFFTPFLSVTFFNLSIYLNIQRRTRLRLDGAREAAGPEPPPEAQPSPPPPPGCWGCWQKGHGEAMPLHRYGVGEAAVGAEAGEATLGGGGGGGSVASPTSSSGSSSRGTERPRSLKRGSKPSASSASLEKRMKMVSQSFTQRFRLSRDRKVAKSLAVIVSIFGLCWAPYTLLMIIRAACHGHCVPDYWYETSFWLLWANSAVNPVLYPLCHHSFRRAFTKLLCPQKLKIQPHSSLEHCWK
experiment_summary: Determination of Ki value at human histamine-3 receptor (radioligand binding, [3H] R-α-methylhistamine)
condition_parameters: recombinant human cDNA expressed in CHO cells; [3H] R-α-methylhistamine 3.0 nM; read-out: Human histamie-3 receptor Ki
test_readout: pKi
Entry type: numeric. Quantity: pKi, the -log10 of concentration in molar units.

Request: Could you share which pKi value was measured for `CC(C)N1CCC(Oc2ccc(NC(=O)CN3CCOCC3)cc2)CC1` ?
Response: 8.08
